Listing: LD50 at 168 h of selected molecules
Assay: Acute toxicity test in rat by the oral route
Format: in vivo
Conditions: in vivo, male rat, in olive oil, after 7 days
METRIC NAME: LD50 at 168 h (mg/kg)

>>> test_result("CC(C)C(C(=O)OC(C#N)c1cccc(Oc2ccccc2)c1)c1ccc(Cl)cc1 (centres unmarked) [Compound (E), Fenvalerate]")
440
>>> test_result("CC1(C)C(C=C(Cl)Cl)C1C(=O)OC(C#N)c1cccc(Oc2ccccc2)c1 (centres unmarked)")
310
>>> test_result("CC1(C)C(C=C(Cl)Cl)C1C(=O)OCc1cccc(Oc2ccccc2)c1 (centres unmarked)")
300

====

Assay: Fish toxicity test with carp
Format: in vivo, Cyprinus carpio L
Settings: carp, water, Table 12 and text of Utility Example-1; carp; read-out: Toxicity to fish TLm
Procedure: Fish toxicity test with carp (Cyprinus carpio L) An acetone solution of one of the test compounds as mentioned in Table 10 and Tween-20 (the same surfactant as mentioned hereinbefore) was prepared. To 50 liters of water (30 cm deep) in a glass tank was added the above acetone solution. The mixture was stirred thoroughly to prepare an aqueous solution containing the test compound in a predetermined concentration. This was used as a test water. […] The TLm (median tolerance limit, ppm) was determined. […]
METRIC NAME: LC50 at 48 h

>>> test_result("C#CC(OC(=O)[C@@H]1[C@@H](C=C(Cl)Cl)C1(C)C)c1cccc(Oc2ccc(Cl)cc2)c1 (relative stereo) [Compound (2) trans-]")
"> 10 µg/mL"

====

Tested on: guppies (Lebistes reticulatus)
Experiment: Fish toxicity test with guppies
Format: in vivo
Conditions: Table 1; 48 hrs.
Below is a list of entries, each paired with its recorded Toxicity to fish TLm, guppy value.
METRIC NAME: Toxicity to fish TLm, guppy

>>> test_result("CC1(C)C(C=C(Cl)Cl)C1C(=O)OC(C#N)c1cccc(Oc2ccccc2)c1 (centres unmarked)")
"< 0.5 ppm"
>>> test_result("CC1(C)C(C=C(Br)Br)C1C(=O)OC(C#N)c1cccc(Oc2ccccc2)c1 (centres unmarked)")
"< 0.5 ppm"
>>> test_result("C#CC(OC(=O)C1C(C=C(Cl)Cl)C1(C)C)c1cccc(Oc2ccc(Cl)cc2)c1 (stereo not drawn) [Compound (2) cis-/trans- = 50:50]")
"> 10 ppm"
>>> test_result("C#CC(OC(=O)C1C(C=C(Cl)Cl)C1(C)C)c1cccc(Oc2ccccc2)c1 (centres unmarked)")
"< 0.5 ppm"
>>> test_result("CC1(C)C(C=C(Cl)Cl)C1C(=O)OCc1cccc(Oc2ccc(Cl)cc2)c1 (stereo not drawn) [Compound (1) cis-/trans- = 50:50]")
"> 5 ppm"
>>> test_result("CC1(C)C(C=C(Cl)Cl)C1C(=O)OC(C#N)c1cccc(Oc2ccc(Cl)cc2)c1 (stereo not drawn) [Compound (G) cis-/trans- = 50:50]")
"< 1.0 ppm"
>>> test_result("CC(C)C(C(=O)OC(C#N)c1cccc(Oc2ccccc2)c1)c1ccc(Cl)cc1 (centres unmarked) [Compound (E), Fenvalerate]")
"< 0.5 ppm"
>>> test_result("CC1(C)C(C=C(Cl)Cl)C1C(=O)OCc1cccc(Oc2ccccc2)c1 (centres unmarked)")
"< 0.5 ppm"

====

Tested on: rice stem borers (Chilo suppressalis Walker)
Assay: Mortality test with rice stem borers by topical application method
Assay type: in vivo
Settings: 24 h
METRIC NAME: mortality at 1 µg/larva (%)

>>> test_result("C#CC(OC(=O)[C@@H]1[C@H](C=C(Cl)Cl)C1(C)C)c1cccc(Oc2ccc(Cl)cc2)c1 (relative stereo) [Compound (2) cis-]")
100
>>> test_result("C#CC(OC(=O)[C@@H]1[C@@H](C=C(Cl)Cl)C1(C)C)c1cccc(Oc2ccc(Cl)cc2)c1 (relative stereo) [Compound (2) trans-]")
100
>>> test_result("CC(C)C(C(=O)OC(C#N)c1cccc(Oc2ccccc2)c1)c1ccc(Cl)cc1 (stereo not drawn) [Compound (E), Fenvalerate]")
100
